Tested on: primary human airway basal cells (HBEC, luciferase-transduced)
Assay: proliferation (luciferase bioluminescence) Z score relative to plate mean; higher = more proliferation / more cells, active = 1.96 or more
Conditions: donor: 1; 5 µM; library: ENZO Libraries; 4 days
Where a name gives a salt, the structure may show the parent alone.
measurement_label: proliferation
A bare number is all that is needed in reply.

Worked examples, 5 compounds total:
compound	proliferation
CCCCCCCCCC(=O)N[C@@H](CCCN=C(N)N)C(=O)N[C@H](C(=O)N[C@@H](CCCCN)C(=O)N[C@@H](CCCN=C(N)N)C(=O)CCl)C(C)C	0.0695
N=C(N)Nc1ccc(C(=O)Oc2ccc3cc(C(=N)N)ccc3c2)cc1 [Nafamostat mesylate]	-0.0211
CCCCCCCCCCCCC/C=C/[C@@H](O)[C@@H](N)CO	0.187
O=c1c(-c2ccc(O)cc2)coc2cc(O)cc(O)c12	2.14
Oc1ccc(/C=C/c2cc(O)cc(O)c2)cc1	3.39

In: Respond only with proliferation recorded for CCOC(=O)C1=CN(Cc2ccccc2)C=C(C(=O)OCC)C1c1ccccc1
Out: 0.65

In: Respond only with proliferation recorded for O=C(O[C@@H]1Cc2c(O)cc(O)cc2O[C@@H]1c1cc(O)c(O)c(O)c1)c1cc(O)c(O)c(O)c1 [Epigallocatechin gallate]
Out: -0.177

In: Respond only with proliferation recorded for O=C1Nc2ccccc2/C1=C1/Nc2ccccc2C1=O
Out: -1.2

In: Respond only with proliferation recorded for Cc1ccc(NC(=O)c2cccc(N(C)C)c2)cc1NC(=O)c1ccc(O)cc1
Out: 0.18

###

System: primary human airway basal cells (HBEC, luciferase-transduced)
Experiment: proliferation (luciferase bioluminescence) Z score relative to plate mean; higher = more proliferation / more cells, active = 1.96 or more
Conditions: donor: 1; 5 µM; library: ENZO Libraries; 4 days
Choose one outcome from this list and give only that: Y (active), N (inactive)

Sample answers from the record:
molecule	tgt	class_name
Oc1c2ccccc2c2c3c(cccc13)N=N2	primary human airway basal cells (HBEC, luciferase-transduced)	N
Cn1cnc2nc(NCCO)nc(NCc3ccccc3)c21 [Iso-olomoucine]	primary human airway basal cells (HBEC, luciferase-transduced)	N
CCCCC[C@H](CC(=O)NO)C(=O)N[C@H](C(=O)N1CCC[C@H]1CO)C(C)C [Actinonin]	primary human airway basal cells (HBEC, luciferase-transduced)	N
CC(C)CCNC(=O)[C@H](CC(C)C)NC(=O)[C@H]1O[C@@H]1C(=O)O	primary human airway basal cells (HBEC, luciferase-transduced)	N

We now examine a further molecule.
In: Which outcome was entered for the molecule COc1cc2ncc(-c3ccccc3)nc2cc1OC in this test?
Out: Y

###

Test system: primary human airway basal cells (HBEC, luciferase-transduced)
Test: proliferation (luciferase bioluminescence) Z score relative to plate mean; higher = more proliferation / more cells, active = 1.96 or more
Conditions: donor: 1; 5 µM; library: ENZO Libraries; 4 days
Choose one outcome from this list and give only that: T (active), F (inactive)

compound	class_name
O=C[C@@H]1CCCN1C(=O)[C@@H]1CCCN1C(=O)OCc1ccccc1 [Z-Prolyl-prolinal]	F

In: Which outcome was entered for the compound N#CC(C#N)=C(N)/C(C#N)=C/c1cc(O)c(O)c(O)c1 in this test?
Out: F

In: Which outcome was entered for the compound CC(NC(=O)C(Cc1ccccc1)NC(=O)OCc1ccccc1)C(=O)CF (stereo unspecified) in this test?
Out: F

In: Which outcome was entered for the compound CN(C)CCCn1cc(C2=C(c3c[nH]c4ccccc34)C(=O)NC2=O)c2ccccc21 in this test?
Out: F

In: Which outcome was entered for the compound CSCCC(C=O)NC(=O)C(CC(C)C)NC(=O)[C@H](CC(C)C)NC(C)=O (stereo partly specified) [Calpain Inhibitor II (ALLM)] in this test?
Out: F
